Source of measurements: patent US9238039B2

- Test system: RSV strain A2
- assay: RSV antiviral cytoprotection assay in Hep2 cells (96-well and 384-well format, Cell TiterGlo read-out)
- Type: cell-based, Respiratory Syncytial Virus (RSV)
- measurement-context: human respiratory syncytial virus, HEp-2, 0.5 uM; RSV-induced cytopathic effect in Hep2 cells; calculated from fitted dose response curve, normalized to 0% and 100%

| compound | inhibition at 0.5 µM [%] |
| --- | --- |
| CS(=O)(=O)Nc1ccc(Cl)cc1C(=O)N1CCCC[C@H]1c1cc2nc(NCCO)cc(N3CCOCC3)n2n1 | 94 |
| Cc1cn2nc([C@@H]3CCCCN3C(=O)c3cc(O)ccc3Cl)cc2nc1N1CC[C@H](N)C1 | 99 |
| Cc1cn2nc([C@@H]3CCCCN3C(=O)c3cccc(C)c3Cl)cc2nc1N1CC[C@H](N)C1 | 100 |
| CS(=O)(=O)Nc1ccc(Cl)cc1C(=O)N1CCCC[C@H]1c1cc2nc(N3CC(O)C3)cc(N3CC4(COC4)C3)n2n1 | 99 |
| Cc1cn2nc([C@@H]3CCCCN3C(=O)c3nonc3NCCO)cc2nc1N1CC[C@H](N)C1 | 79 |
| Cc1cn2nc([C@@H]3CCCCN3C(=O)c3ccc4ccn(C)c4c3)cc2nc1N1CC[C@H](N)C1 | 83.6 |
| Cc1ccc(NS(C)(=O)=O)c(C(=O)N2CCCC[C@H]2c2cc3nc(N4CC[C@H](N)C4)c(C)cn3n2)c1 | 100 |
| Cc1cn2nc([C@@H]3CCCCN3C(=O)c3cn4ccccc4n3)cc2nc1N1CC[C@H](N)C1 | 100 |
| Cc1cc(N2CC(O)C2)nc2cc([C@@H]3CCCCN3C(=O)c3cc(Br)ccc3NS(C)(=O)=O)nn12 | 100 |
| CS(=O)(=O)Nc1ccc(Cl)cc1C(=O)N1CCCC[C@H]1c1cc2nc(N3CCC3)cc(N3CCN[C@@H](CF)C3)n2n1 | 100 |
| CCn1nc(C)cc1C(=O)N1CCCC[C@H]1c1cc2nc(N3CC[C@H](N)C3)c(C)cn2n1 | 100 |
| Cc1ccc(NS(C)(=O)=O)c(C(=O)N2CCCC(C)C2c2cc3[nH]c(C)c(C)c(=O)n3n2)c1 (stereo not drawn) | 99 |
| Cc1cn2nc([C@@H]3CCCCN3C(=O)c3cc(C4CC4)[nH]n3)cc2nc1N1CC[C@H](N)C1 | 95 |
| Cc1cn2nc([C@@H]3CCCCN3C(=O)c3cc(Cl)ccc3NS(C)(=O)=O)cc2nc1N1C[C@H](O)[C@@H](O)C1 | 100 |
| Cc1cn2nc([C@@H]3CCCCN3C(=O)c3cccc(N)c3)cc2nc1N1CC[C@H](C#N)C1 | 100 |
